Recorded IC50 by entry
Biological target: TNKS2 (GST-tagged tankyrase 2 PARP domain, TNKS2P) (Homo sapiens (Human), UniProt Q9H2K2)
Sequence (Q9H2K2 959-1164): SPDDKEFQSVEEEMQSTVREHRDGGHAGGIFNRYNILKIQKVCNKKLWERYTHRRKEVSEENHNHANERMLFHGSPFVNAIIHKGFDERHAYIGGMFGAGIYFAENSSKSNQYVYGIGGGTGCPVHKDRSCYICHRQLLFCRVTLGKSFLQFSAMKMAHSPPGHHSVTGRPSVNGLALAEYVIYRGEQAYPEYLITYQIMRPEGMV
Numbers only here, please. The scale is µM.

In the examples that follow, each entry is paired with its recorded IC50.
C[C@@H](c1ccccc1)N(Cc1nc2c(c(=O)[nH]1)COCC2)S(=O)(=O)Cc1ccccc1 :: 3.12
CC(C)N(Cc1nc2c(c(=O)[nH]1)COCC2)C(=O)CCc1ccccc1 :: 5.39
O=C(CCc1ccccc1)N(Cc1nc2c(c(=O)[nH]1)COCC2)CC1CCCC1 :: 0.995

Pending compound:
API: value(readout=IC50, system=TNKS2 (GST-tagged tankyrase 2 PARP domain, TNKS2P) (Homo sapiens (Human), UniProt Q9H2K2)) for record CC(C)(C)C(=O)CN(Cc1nc2c(c(=O)[nH]1)COCC2)C(=O)CCc1ccccc1
2.99

----------
Recorded pIC50 by entry
Test system: Non-small lung cancer ABC-1 cells
Test: Cellular proliferation assay (CellTiter-Glo) in ABC-1 cells
Type: cell-based
Conditions: Homo sapiens, 72 h, 3 days of compound treatment
pIC50: −log10 of the molar value.

O=C(CCc1cccc(O)c1)N(Cc1nc2c(c(=O)[nH]1)COCC2)Cc1cccs1 [Example 7] :: < 5.00
O=C(CCc1ccc(F)cc1)N(Cc1nc2c(c(=O)[nH]1)COCC2)Cc1cccs1 [Example 2] :: < 5.00
O=C(CCc1ccccc1)N(Cc1nc2c(c(=O)[nH]1)COCC2)Cc1cccs1 [Example 1] :: < 5.00

Pending compound:
Look up pIC50 for this compound: O=C(CCc1ccccc1F)N(Cc1nc2c(c(=O)[nH]1)COCC2)Cc1cccs1 [Example 4]
5.06

The values you see were collected from patent US9227982B2.
